Catalogue of compounds with associated Ratio
- SYSTEM UNDER TEST: Papain (Carica papaya) (UniProt P00784)
- Sequence (P00784 whole entry): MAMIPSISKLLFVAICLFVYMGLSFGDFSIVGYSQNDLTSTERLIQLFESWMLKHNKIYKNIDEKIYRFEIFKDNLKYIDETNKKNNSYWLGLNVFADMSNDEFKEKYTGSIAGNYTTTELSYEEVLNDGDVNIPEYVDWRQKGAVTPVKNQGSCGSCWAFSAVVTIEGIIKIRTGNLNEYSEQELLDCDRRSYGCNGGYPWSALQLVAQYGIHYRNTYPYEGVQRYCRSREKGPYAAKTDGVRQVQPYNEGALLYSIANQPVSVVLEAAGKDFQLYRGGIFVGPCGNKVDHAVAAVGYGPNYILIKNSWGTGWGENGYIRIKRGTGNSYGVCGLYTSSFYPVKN
- METHOD NOTES: Ratio of Kinact to Ki for papain by second-order papain inhibition plot

{"COMPOUND": "COC(=O)/C=C/CNC(=O)c1cc(-c2ccc(C)cc2)no1", "Ratio": 1.23}
{"COMPOUND": "COC(=O)/C=C/CNC(=O)[C@H](CNC(C)=O)Cc1ccccc1", "Ratio": 0.386}
{"COMPOUND": "COC(=O)/C=C/CNC(=O)c1sc(-c2ccccc2F)nc1C", "Ratio": 0.409}
{"COMPOUND": "COC(=O)/C=C/CNC(=O)C1CCN(C(=O)CC(C)C)CC1", "Ratio": 0.461}
{"COMPOUND": "COC(=O)/C=C/CNC(=O)[C@@H](CNC(C)=O)Cc1ccccc1", "Ratio": 6.58}
{"COMPOUND": "COC(=O)/C=C/CNC(=O)[C@@H](CNC(C)=O)CC(C)C", "Ratio": 1.1}
{"COMPOUND": "COC(=O)/C=C/CNC(=O)c1ccc(C2CCCO2)s1 (configuration not stated)", "Ratio": 0.037}

====

- SYSTEM UNDER TEST: UniProt:P40818
- Sequence (whole entry): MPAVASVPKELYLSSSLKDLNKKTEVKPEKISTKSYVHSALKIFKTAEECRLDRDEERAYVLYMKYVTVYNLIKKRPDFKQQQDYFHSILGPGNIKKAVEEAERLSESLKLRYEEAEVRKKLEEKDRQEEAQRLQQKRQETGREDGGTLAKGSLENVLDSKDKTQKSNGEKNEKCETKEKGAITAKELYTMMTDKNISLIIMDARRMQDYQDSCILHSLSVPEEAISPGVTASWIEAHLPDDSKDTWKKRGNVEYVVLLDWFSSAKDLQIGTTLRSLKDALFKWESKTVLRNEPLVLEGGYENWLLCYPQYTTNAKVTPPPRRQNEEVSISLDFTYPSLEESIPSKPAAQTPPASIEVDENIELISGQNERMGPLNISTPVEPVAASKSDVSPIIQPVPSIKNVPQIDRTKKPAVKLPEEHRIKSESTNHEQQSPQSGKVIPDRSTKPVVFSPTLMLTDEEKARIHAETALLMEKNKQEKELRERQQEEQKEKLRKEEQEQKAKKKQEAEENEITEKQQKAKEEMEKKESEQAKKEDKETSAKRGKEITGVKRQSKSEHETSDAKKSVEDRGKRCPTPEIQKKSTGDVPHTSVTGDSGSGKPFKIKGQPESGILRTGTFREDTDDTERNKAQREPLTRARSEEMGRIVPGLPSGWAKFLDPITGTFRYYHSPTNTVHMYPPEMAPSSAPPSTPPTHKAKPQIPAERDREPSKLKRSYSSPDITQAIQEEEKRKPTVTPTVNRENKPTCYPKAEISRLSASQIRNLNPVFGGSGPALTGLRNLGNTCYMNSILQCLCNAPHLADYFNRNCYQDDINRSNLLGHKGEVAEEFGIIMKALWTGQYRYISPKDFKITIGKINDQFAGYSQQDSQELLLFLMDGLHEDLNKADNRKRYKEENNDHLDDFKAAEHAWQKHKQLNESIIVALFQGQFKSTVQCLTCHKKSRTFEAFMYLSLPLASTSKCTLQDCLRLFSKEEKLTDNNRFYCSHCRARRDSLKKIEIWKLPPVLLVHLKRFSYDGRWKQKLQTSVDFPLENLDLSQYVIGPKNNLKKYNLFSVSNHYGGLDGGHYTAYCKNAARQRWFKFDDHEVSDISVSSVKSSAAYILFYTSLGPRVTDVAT
- METHOD NOTES: Binding affinity to deubiquitinase USP08 (unknown origin) assessed as labeling after 4 hrs incubation
The source made the active and inactive calls. The calls are words filed in the database; no cut-off is given here.

{"CHEMICAL STRUCTURE": "COC(=O)/C=C/CNC(=O)c1cc(-c2ccc(C)cc2)no1", "Activity": "inactive"}
{"CHEMICAL STRUCTURE": "COC(=O)/C=C/CNC(=O)c1sc(-c2ccccc2F)nc1C", "Activity": "30%"}
{"CHEMICAL STRUCTURE": "COC(=O)/C=C/CNC(=O)c1ccccc1NC(=O)Nc1ccc(Cl)cc1", "Activity": "30%"}
{"CHEMICAL STRUCTURE": "COC(=O)/C=C/CNC(=O)C1CCN(C(=O)CC(C)C)CC1", "Activity": "inactive"}
